Test system: biotinyl-Trp-oxazolone
Test: self-aminoacylation, catalytic enhancement (BWO) (fold over background); higher = more active; k-Seq, kA / k0A0; sequences stand for … in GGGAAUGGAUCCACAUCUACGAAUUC…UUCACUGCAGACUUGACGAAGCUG
This sample holds only a part of the variants without activity.
property: self-aminoacylation

(Q) Query (sequence): CUACUUUAAACAAUCGGUCUU [Fam1A.1 aminoacylation ribozyme variant] ; field requested: self-aminoacylation
(A) 0.6

(Q) Query (sequence): CCACACGUCAAGCAAUCAGUC [Fam1B.1 aminoacylation ribozyme variant] ; field requested: self-aminoacylation
(A) 0.482

(Q) Query (sequence): AAGUUUGCUAAUAGUCGCAAC [Fam3.1 aminoacylation ribozyme variant] ; field requested: self-aminoacylation
(A) 1.06

(Q) Query (sequence): CUAAUUCAAACAAUCGGUCAG [Fam1A.1 aminoacylation ribozyme variant] ; field requested: self-aminoacylation
(A) 0.765

----------
Test system: biotinyl-Phe-oxazolone
Test: self-aminoacylation, catalytic enhancement (BFO) (fold over background); higher = more active; k-Seq, kA / k0A0; sequences stand for … in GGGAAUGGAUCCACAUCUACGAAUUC…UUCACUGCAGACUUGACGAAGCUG
This sample holds only a part of the variants without activity.
Please go through the items and note down their self-aminoacylation.
Simply state the number, no unit and no words.

(Q) Query (sequence): AUUCACUUAGGUCAUCGCGUG [Fam2.2 aminoacylation ribozyme variant] ; field requested: self-aminoacylation
(A) 94.5

(Q) Query (sequence): AUUUACUUAGGUCAUCGGGUG [Fam2.2 aminoacylation ribozyme variant] ; field requested: self-aminoacylation
(A) 32.2

(Q) Query (sequence): CCACACUUCAACCAAUCGGUA [Fam1B.1 aminoacylation ribozyme variant] ; field requested: self-aminoacylation
(A) 1.08

(Q) Query (sequence): CUUCAUCUAGGUCAUCGGGUG [Fam2.2 aminoacylation ribozyme variant] ; field requested: self-aminoacylation
(A) 38.8

(Q) Query (sequence): AUUCACCAAGUUCAUCGGGUG [Fam2.2 aminoacylation ribozyme variant] ; field requested: self-aminoacylation
(A) 19.8

(Q) Query (sequence): CUACUUCAAACAAUCCGUCGG [Fam1A.1 aminoacylation ribozyme variant] ; field requested: self-aminoacylation
(A) 1.23

(Q) Query (sequence): AUUACCCUGGUCAUCGAGGUA [Fam2.1 aminoacylation ribozyme variant] ; field requested: self-aminoacylation
(A) 10.2

(Q) Query (sequence): AUUACCCUGGACAUCGAGUGU [Fam2.1 aminoacylation ribozyme variant] ; field requested: self-aminoacylation
(A) 5.95

(Q) Query (sequence): AAGUUUGCGAAUAGUCGAAAG [Fam3.1 aminoacylation ribozyme variant] ; field requested: self-aminoacylation
(A) 0.796

(Q) Query (sequence): AAGUUUACUAAUAGUCGCAAU [Fam3.1 aminoacylation ribozyme variant] ; field requested: self-aminoacylation
(A) 3.51

(Q) Query (sequence): AUUCACUUAGGUCAUCGGGGG [Fam2.2 aminoacylation ribozyme variant] ; field requested: self-aminoacylation
(A) 2.12

(Q) Query (sequence): AUGUUUGAUAAUAGUCGCAAG [Fam3.1 aminoacylation ribozyme variant] ; field requested: self-aminoacylation
(A) 1.59

(Q) Query (sequence): CUCCACUUCAAGCAAUCGGUC [Fam1B.1 aminoacylation ribozyme variant] ; field requested: self-aminoacylation
(A) 50.4

(Q) Query (sequence): AUUACCCAGGUCAUCAAGUGA [Fam2.1 aminoacylation ribozyme variant] ; field requested: self-aminoacylation
(A) 3.35

(Q) Query (sequence): AUUACCCUGGUCCUCGUGUGA [Fam2.1 aminoacylation ribozyme variant] ; field requested: self-aminoacylation
(A) 14

(Q) Query (sequence): AGUCACCUAGGUCAUCUGGUG [Fam2.2 aminoacylation ribozyme variant] ; field requested: self-aminoacylation
(A) 15.2

(Q) Query (sequence): AUUAGCCUGGUCAUCAAGUGA [Fam2.1 aminoacylation ribozyme variant] ; field requested: self-aminoacylation
(A) 17.9

(Q) Query (sequence): AUUCACCUAGGUCAUCGGGGC [Fam2.2 aminoacylation ribozyme variant] ; field requested: self-aminoacylation
(A) 20.7
